- Measured On: PI3K delta (Homo sapiens, UniProt O00329)
- Sequence (O00329 whole entry): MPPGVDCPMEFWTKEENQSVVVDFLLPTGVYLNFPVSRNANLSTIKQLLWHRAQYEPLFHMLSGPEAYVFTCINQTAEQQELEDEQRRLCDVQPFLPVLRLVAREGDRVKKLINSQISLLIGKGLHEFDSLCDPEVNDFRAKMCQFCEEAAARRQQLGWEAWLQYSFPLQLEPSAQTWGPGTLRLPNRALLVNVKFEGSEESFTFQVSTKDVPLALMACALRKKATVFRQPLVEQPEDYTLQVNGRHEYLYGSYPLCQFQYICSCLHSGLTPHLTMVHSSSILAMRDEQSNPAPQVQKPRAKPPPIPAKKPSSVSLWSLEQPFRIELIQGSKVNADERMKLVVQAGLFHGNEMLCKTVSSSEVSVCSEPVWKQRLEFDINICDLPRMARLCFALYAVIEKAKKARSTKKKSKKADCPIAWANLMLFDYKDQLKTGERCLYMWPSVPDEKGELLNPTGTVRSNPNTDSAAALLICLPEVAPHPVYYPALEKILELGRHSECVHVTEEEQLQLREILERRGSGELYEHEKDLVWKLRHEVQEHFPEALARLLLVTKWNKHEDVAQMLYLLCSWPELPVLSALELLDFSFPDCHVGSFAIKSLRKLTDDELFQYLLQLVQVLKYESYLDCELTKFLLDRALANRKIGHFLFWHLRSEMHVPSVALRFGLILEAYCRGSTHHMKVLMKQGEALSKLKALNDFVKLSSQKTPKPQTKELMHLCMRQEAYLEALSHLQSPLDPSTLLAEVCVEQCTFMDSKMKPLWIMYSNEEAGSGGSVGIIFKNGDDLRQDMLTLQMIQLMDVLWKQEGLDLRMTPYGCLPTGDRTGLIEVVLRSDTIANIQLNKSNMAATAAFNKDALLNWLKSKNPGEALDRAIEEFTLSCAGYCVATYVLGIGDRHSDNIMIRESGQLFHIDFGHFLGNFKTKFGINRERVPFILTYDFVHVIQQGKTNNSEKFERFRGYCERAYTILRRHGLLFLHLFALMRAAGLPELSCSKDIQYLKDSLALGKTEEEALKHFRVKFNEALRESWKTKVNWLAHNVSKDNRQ
- Sequence (Q63787 whole entry partner): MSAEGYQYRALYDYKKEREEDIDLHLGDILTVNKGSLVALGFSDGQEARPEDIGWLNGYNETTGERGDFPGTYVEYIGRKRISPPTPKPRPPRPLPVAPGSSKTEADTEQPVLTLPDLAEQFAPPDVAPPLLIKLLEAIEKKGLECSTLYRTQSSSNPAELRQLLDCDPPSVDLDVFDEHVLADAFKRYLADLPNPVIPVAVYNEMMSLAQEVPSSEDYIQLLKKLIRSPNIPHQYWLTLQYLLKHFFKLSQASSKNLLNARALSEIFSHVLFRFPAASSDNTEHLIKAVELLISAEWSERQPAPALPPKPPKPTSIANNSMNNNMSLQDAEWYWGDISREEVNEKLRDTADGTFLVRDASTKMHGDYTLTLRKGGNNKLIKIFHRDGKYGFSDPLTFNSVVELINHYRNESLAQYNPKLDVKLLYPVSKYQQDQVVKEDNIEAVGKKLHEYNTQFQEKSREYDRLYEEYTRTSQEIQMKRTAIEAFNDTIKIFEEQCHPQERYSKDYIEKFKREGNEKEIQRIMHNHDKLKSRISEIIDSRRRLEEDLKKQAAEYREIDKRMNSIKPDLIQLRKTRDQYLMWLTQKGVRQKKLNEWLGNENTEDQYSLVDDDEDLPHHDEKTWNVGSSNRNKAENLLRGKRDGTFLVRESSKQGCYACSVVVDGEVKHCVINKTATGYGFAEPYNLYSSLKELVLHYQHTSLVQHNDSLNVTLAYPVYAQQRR
- Run Description: PI3K delta inhibition in Rat1-myr-HA-p110 delta cells (Akt Ser473 phosphorylation, AlphaScreen SureFire)
- Assay type: cell-based
- Parameters: myristylation signal (myr) (N); HA tag (N); expressed in transfected cells; host or cells: Rat1 cells, stably transfected
- Applied Conditions: read-out: Cell PI3Kδ/ IC50
Reported Property: IC50 (nM)

INSERT INTO assay_data (structure_string, reported_property, result) VALUES
  ('COc1ncc(N2CCc3ncnc(O[C@H]4CCN(C(=O)c5cn(C)cn5)C4)c3C2)cc1C', 'IC50', 254);
